Attribution: BigSolDB 2.1

condition.set: in methanol, 298.95 K
observation.type: solubility (mole fraction)

[[record]]
compound_string = "NC(=O)c1ccccc1N"
observation_type = "solubility (mole fraction)"
val = 0.106


----------
condition.set: in isobutanol, 284.15 K
observation.type: solubility (mole fraction)

[[record]]
compound_string = "NC(=O)c1ccccc1N"
val = 0.0153


----------
condition.set: in acetonitrile, 323.65 K
observation.type: solubility (mole fraction)

[[record]]
compound_string = "NC(=O)c1ccccc1N"
observation_type = "solubility (mole fraction)"
val = 0.183


----------
condition.set: in n-hexanol, 273.15 K
observation.type: solubility (mole fraction)

[[record]]
compound_string = "NC(=O)c1ccccc1N"
val = 0.0141

